Molecular target: thrombin (Homo sapiens)
Construct: consists of two polypeptide chains of 36 (light chain) and 259 amino acid
Assay: Thrombin inhibition screen of crude macrocycle reactions (residual thrombin activity, fluorogenic substrate Z-Gly-Gly-Arg-AMC)
Type: biochemical
Settings: 10 µM macrocycle concentration; crude reactions, Library 1a-l; scaffold AA1-AA2-AA3 combined with 1-16 or '-'
Protocol: As a proof-of-concept, we screened the macrocycle library for inhibitors against thrombin, which is the central blood coagulation protease and an important therapeutic target. We conducted the screen for thrombin-inhibiting macrocycles in 384-well reaction plates. Briefly, each well contained a unique macrocycle (10 μM), 5 μL of thrombin (2 nM final conc.), and subsequently, 5 µL of a fluorogenic substrate to measure the residual thrombin activity and the extent of protease inhibition. […]
Numbered stars: 1 amine (or outer) side, 2 acyl side, 3 side chain; on linkers, the order of the positions; unused ones are H or OH. Bridge positions count the residues as written; N and C are the ends. Square brackets hold non-standard residues; d marks the D form. Peptide text beside a SMILES is read from it. * marks the point of attachment. Isoorotoyl = O=C(c1c[nH]c(=O)[nH]c1=O)*; Pyrazinecarbonyl = O=C(c1cnccn1)*; Phenoxyacetyl = O=C(COc1ccccc1)*; Cysteamide = C(CS[*:3])N[*:1]; Isovaleryl = CC(C)CC(=O)*; Orn = NCCC[C@H](N)C(=O)O; Mpa = O=C(O)CCS
readout type: percent residual thrombin activity (%)

>  <compound>
CC(C)[C@H]1NC(=O)c2cccc(c2)CNC(=O)[C@H](CCCNC(=O)c2c[nH]c(=O)[nH]c2=O)NC(=O)CCSSCCNC1=O [D2-B5-v/11]

>  <test system>
thrombin (Homo sapiens)

>  <percent residual thrombin activity [%]>
108.83

$$$$
>  <compound>
NC(=O)CC[C@@H]1NC(=O)CCSSCCNC(=O)[C@H](CCCCNC(=O)c2c[nH]c(=O)[nH]c2=O)NC(=O)C2(CC2)CNC1=O [Q-B6-D1/11]

>  <test system>
thrombin (Homo sapiens)

>  <percent residual thrombin activity [%]>
108.88

$$$$
>  <compound>
O=C1CCNC(=O)[C@H](Cc2c[nH]cn2)NC(=O)CCSSCCNC(=O)[C@H](CCCNC(=O)c2c[nH]c(=O)cn2)N1 [H-B2-D2/9]

>  <test system>
thrombin (Homo sapiens)

>  <percent residual thrombin activity [%]>
106.277

$$$$
>  <compound>
O=C(COc1ccccc1)NCCCC[C@@H]1NC(=O)[C@@H](Cc2c[nH]c3ccccc23)NC(=O)[C@H]2CCCN(C2)C(=O)CCSSCCNC1=O [B4-w-D1/13]

>  <test system>
thrombin (Homo sapiens)

>  <percent residual thrombin activity [%]>
115.4

$$$$
>  <compound>
O=C(NCCCC[C@@H]1NC(=O)[C@@H](Cc2c[nH]c3ccccc23)NC(=O)[C@H]2CCCN(C2)C(=O)CCSSCCNC1=O)c1ccccc1 [B4-w-D1/1]

>  <test system>
thrombin (Homo sapiens)

>  <percent residual thrombin activity [%]>
105.33

$$$$
>  <compound>
C[C@H]1NC(=O)CCSSCCNC(=O)[C@H](CCCCNC(=O)c2cnccn2)NC(=O)[C@@H]2CCCN2C1=O [a-B1-D1/2] ([Mpa][dA]PK(Pyrazinecarbonyl)-Cysteamide; disulfide 1-C)

>  <test system>
thrombin (Homo sapiens)

>  <percent residual thrombin activity [%]>
113.236

$$$$
>  <compound>
O=C(COc1ccccc1)NCCC[C@@H]1NC(=O)CCSSCCNC(=O)c2ccc(cc2)CNC(=O)[C@H](Cc2c[nH]c3ccccc23)NC1=O [D2-W-B3/13]

>  <test system>
thrombin (Homo sapiens)

>  <percent residual thrombin activity [%]>
117.613

$$$$
>  <compound>
CC(C)[C@@H]1NC(=O)[C@H](CCCN)NC(=O)C2(CC2)CNC(=O)CCSSCCNC1=O [B6-D2-V/-]

>  <test system>
thrombin (Homo sapiens)

>  <percent residual thrombin activity [%]>
112.468

$$$$
>  <compound>
O=C1CCSSCCNC(=O)c2ccc(cc2)CNC(=O)[C@H](Cc2c[nH]c3ccccc23)NC(=O)[C@H](CCCNC(=O)c2ccc(Cl)s2)N1 [D2-W-B3/14]

>  <test system>
thrombin (Homo sapiens)

>  <percent residual thrombin activity [%]>
109.796

$$$$
>  <compound>
O=C1CCSSCCNC(=O)[C@H](CCCCNC(=O)c2ccco2)NC(=O)[C@H](Cc2cnc[nH]2)NC(=O)c2ccc(cc2)CN1 [B3-H-D1/16]

>  <test system>
thrombin (Homo sapiens)

>  <percent residual thrombin activity [%]>
107.22

$$$$
>  <compound>
CC[C@H](C)[C@@H]1NC(=O)CCNC(=O)[C@H](CCCNC(=O)c2ccc(OC)nc2)NC(=O)CCSSCCNC1=O [D2-B2-I/10]

>  <test system>
thrombin (Homo sapiens)

>  <percent residual thrombin activity [%]>
104.624

$$$$
>  <compound>
CC(C)C[C@@H]1NC(=O)CCSSCCNC(=O)[C@H](CCCNC(=O)Cc2c[nH]c3ccccc23)NC(=O)[C@H]2CCCN(C2)C1=O [L-B4-D2/12]

>  <test system>
thrombin (Homo sapiens)

>  <percent residual thrombin activity [%]>
105.489

$$$$
>  <compound>
CC(C)CC(=O)NCCC[C@@H]1NC(=O)[C@H](CO)NC(=O)[C@@H]2CCCN2C(=O)CCSSCCNC1=O [B1-S-D2/8] ([Mpa]PS[Orn](Isovaleryl)-Cysteamide; disulfide 1-C)

>  <test system>
thrombin (Homo sapiens)

>  <percent residual thrombin activity [%]>
106.543

$$$$
>  <compound>
CC[C@H](C)[C@@H]1NC(=O)CCSSCCNC(=O)[C@H]2CCCN(C2)C(=O)[C@H](CCCCNC(=O)c2c[nH]c(=O)[nH]c2=O)NC1=O [I-D1-B4/11]

>  <test system>
thrombin (Homo sapiens)

>  <percent residual thrombin activity [%]>
113.791

$$$$
>  <compound>
CC(C)C[C@@H]1NC(=O)CCNC(=O)CCSSCCNC(=O)[C@H](CCCNC(=O)c2cnccn2)NC1=O [B2-L-D2/2]

>  <test system>
thrombin (Homo sapiens)

>  <percent residual thrombin activity [%]>
112.903

$$$$
>  <compound>
NCCCC[C@@H]1NC(=O)[C@@H](Cc2c[nH]c3ccccc23)NC(=O)[C@H]2CCCN(C2)C(=O)CCSSCCNC1=O [B4-w-D1/-]

>  <test system>
thrombin (Homo sapiens)

>  <percent residual thrombin activity [%]>
108.066

$$$$
>  <compound>
O=C(NCCCC[C@@H]1NC(=O)[C@@H](Cc2c[nH]c3ccccc23)NC(=O)[C@H]2CCCN(C2)C(=O)CCSSCCNC1=O)c1ccccc1 [B4-W-D1/1]

>  <test system>
thrombin (Homo sapiens)

>  <percent residual thrombin activity [%]>
101.061

$$$$
>  <compound>
Cc1nnsc1C(=O)NCCCC[C@@H]1NC(=O)CCSSCCNC(=O)[C@@H](Cc2ccc(O)cc2)NC(=O)[C@H]2CCCN(C2)C1=O [D1-B4-y/15]

>  <test system>
thrombin (Homo sapiens)

>  <percent residual thrombin activity [%]>
108.72

$$$$
>  <compound>
O=C(COc1ccccc1)NCCCC[C@@H]1NC(=O)[C@H](Cc2c[nH]c3ccccc23)NC(=O)CCSSCCNC(=O)[C@@H]2CCCN2C1=O [W-D1-B1/13] ([Mpa]WK(Phenoxyacetyl)P-Cysteamide; disulfide 1-C)

>  <test system>
thrombin (Homo sapiens)

>  <percent residual thrombin activity [%]>
96.359

$$$$
>  <compound>
NC(=O)CC[C@@H]1NC(=O)[C@H](CCCCNC(=O)c2c[nH]c(=O)[nH]c2=O)NC(=O)C2(CC2)CNC(=O)CCSSCCNC1=O [B6-D1-Q/11]

>  <test system>
thrombin (Homo sapiens)

>  <percent residual thrombin activity [%]>
105.488

$$$$
>  <compound>
O=C(NCCC[C@@H]1NC(=O)[C@H](CO)NC(=O)[C@@H]2CCCN2C(=O)CCSSCCNC1=O)c1c[nH]c(=O)[nH]c1=O [B1-S-D2/11] ([Mpa]PS[Orn](Isoorotoyl)-Cysteamide; disulfide 1-C)

>  <test system>
thrombin (Homo sapiens)

>  <percent residual thrombin activity [%]>
112.339

$$$$
>  <compound>
O=C1CCSSCCNC(=O)C2(CC2)CNC(=O)[C@H](Cc2c[nH]cn2)NC(=O)[C@H](CCCCNC(=O)c2cnccn2)N1 [D1-H-B6/2]

>  <test system>
thrombin (Homo sapiens)

>  <percent residual thrombin activity [%]>
113.964

$$$$
>  <compound>
NCCCC[C@@H]1NC(=O)[C@@H](Cc2c[nH]c3ccccc23)NC(=O)[C@H]2CCCN(C2)C(=O)CCSSCCNC1=O [B4-W-D1/-]

>  <test system>
thrombin (Homo sapiens)

>  <percent residual thrombin activity [%]>
98.9418

$$$$
